Data provenance: paper PMC9276671

Assay: Plasma pharmacokinetics of ALM201 in Phase I patients (validated LC-MS/MS, Phoenix WinNonlin)
Details: human, plasma, sc, 10 mg, Plasma concentration, geometric mean (CV%), 10 mg SC, day 1 cycle 1, 2 h after dosing, n = 1; LC-MS/MS
No end group written: not given here.
readout name: level at 2 h (ng/mL)
# value in ng/mL; strip the unit string

Item: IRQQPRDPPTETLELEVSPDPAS [ALM201] | level at 2 h: 199

----------
Assay: Plasma pharmacokinetics of ALM201 in Phase I patients (validated LC-MS/MS, Phoenix WinNonlin)
Details: human, plasma, sc, 100 mg, Tmax, median, 100 mg SC, day 18 cycle 2, n = 1; plasma LC-MS/MS
No end group written: not given here.
readout name: Tmax (h)
Numeric answer only, unit h assumed.

# Tmax of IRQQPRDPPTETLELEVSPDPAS [ALM201] = 1.02
